# self-cleavage kobs at 40 uM GlcN6P listing for each entry below
B1: glmS ribozyme (parent)
chain: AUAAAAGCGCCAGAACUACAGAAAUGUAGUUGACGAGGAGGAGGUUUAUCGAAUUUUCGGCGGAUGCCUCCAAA

- Variants of: B1
- Test Name: self-cleavage kobs at 40 uM GlcN6P; higher = faster cleavage; RNA array
- Assay Conditions: with glucosamine-6-phosphate
Fewer inactive variants are shown than the library holds.
Metric Name: self-cleavage kobs at 40 uM GlcN6P

Variant Notation | Metric Name | Recorded Result
C11U C50G U65A C68A | self-cleavage kobs at 40 uM GlcN6P | 8.61e-05 s⁻¹
G13A G35A | self-cleavage kobs at 40 uM GlcN6P | < 1e-05 s⁻¹
G32U G44U U45A | self-cleavage kobs at 40 uM GlcN6P | < 1e-05 s⁻¹
G9U A36G A42U G44U | self-cleavage kobs at 40 uM GlcN6P | < 1e-05 s⁻¹
C8U C10A C50A | self-cleavage kobs at 40 uM GlcN6P | < 1e-05 s⁻¹
U57G C70G | self-cleavage kobs at 40 uM GlcN6P | 3.7e-05 s⁻¹
U47A G51U | self-cleavage kobs at 40 uM GlcN6P | < 1e-05 s⁻¹
G9C G29C C67U | self-cleavage kobs at 40 uM GlcN6P | < 1e-05 s⁻¹

Data credit: the supplement of paper PMC7125110
